Measured values drawn from patent US20240067632A1 for this set.

target: WEE1 (Homo sapiens, UniProt P30291+Q96SW2); construct: C-terminal ePL-tagged (DiscoverX, Fremont, CA) full-length WEE1 expression construct; expressed in transfected cells; host or cells: LentiX-HEK293T (Invitrogen), lentiviral transduction; co-expressing GSPT1-GN (G576N, lacking the first 158 amino acids); experiment: WEE1-ePL degradation assay (LentiX-WEE1-ePL-GSPT1-ND cells, InCELL Hunter luminescence, 4 h); format: cell-based; conditions: 293T-LentiX WEE1-ePL cells, read-out: 293T-LentiX WEE1-ePL Degradation 4 hr (EC50)
Sequence (P30291 whole entry): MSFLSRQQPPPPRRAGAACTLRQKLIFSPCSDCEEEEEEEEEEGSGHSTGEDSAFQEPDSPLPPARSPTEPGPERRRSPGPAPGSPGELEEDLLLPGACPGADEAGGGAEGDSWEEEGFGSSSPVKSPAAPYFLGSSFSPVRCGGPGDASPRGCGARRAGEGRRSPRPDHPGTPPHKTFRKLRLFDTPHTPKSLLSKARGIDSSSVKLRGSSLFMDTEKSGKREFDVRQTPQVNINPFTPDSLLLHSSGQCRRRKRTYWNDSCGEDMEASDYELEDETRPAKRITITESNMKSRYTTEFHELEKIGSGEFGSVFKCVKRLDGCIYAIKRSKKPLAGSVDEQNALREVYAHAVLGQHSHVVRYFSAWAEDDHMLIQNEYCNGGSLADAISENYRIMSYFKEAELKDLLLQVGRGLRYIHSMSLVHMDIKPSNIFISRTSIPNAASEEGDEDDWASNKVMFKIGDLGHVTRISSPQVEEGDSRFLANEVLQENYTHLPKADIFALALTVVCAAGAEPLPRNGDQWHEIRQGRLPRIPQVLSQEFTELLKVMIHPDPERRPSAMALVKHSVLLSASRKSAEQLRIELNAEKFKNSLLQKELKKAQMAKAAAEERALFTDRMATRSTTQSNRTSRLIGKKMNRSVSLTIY
Sequence (Q96SW2 whole entry): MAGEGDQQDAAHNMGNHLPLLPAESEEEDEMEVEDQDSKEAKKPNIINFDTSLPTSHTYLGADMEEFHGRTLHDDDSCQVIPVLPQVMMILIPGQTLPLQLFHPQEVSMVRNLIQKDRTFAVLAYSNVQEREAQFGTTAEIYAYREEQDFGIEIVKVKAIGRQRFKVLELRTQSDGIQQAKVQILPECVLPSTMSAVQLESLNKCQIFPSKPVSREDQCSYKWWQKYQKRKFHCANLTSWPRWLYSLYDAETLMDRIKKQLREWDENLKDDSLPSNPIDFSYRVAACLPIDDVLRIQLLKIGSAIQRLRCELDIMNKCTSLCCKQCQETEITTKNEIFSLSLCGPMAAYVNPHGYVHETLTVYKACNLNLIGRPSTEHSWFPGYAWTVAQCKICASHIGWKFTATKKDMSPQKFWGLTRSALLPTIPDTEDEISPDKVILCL
Sequence (Q16531 whole entry partner): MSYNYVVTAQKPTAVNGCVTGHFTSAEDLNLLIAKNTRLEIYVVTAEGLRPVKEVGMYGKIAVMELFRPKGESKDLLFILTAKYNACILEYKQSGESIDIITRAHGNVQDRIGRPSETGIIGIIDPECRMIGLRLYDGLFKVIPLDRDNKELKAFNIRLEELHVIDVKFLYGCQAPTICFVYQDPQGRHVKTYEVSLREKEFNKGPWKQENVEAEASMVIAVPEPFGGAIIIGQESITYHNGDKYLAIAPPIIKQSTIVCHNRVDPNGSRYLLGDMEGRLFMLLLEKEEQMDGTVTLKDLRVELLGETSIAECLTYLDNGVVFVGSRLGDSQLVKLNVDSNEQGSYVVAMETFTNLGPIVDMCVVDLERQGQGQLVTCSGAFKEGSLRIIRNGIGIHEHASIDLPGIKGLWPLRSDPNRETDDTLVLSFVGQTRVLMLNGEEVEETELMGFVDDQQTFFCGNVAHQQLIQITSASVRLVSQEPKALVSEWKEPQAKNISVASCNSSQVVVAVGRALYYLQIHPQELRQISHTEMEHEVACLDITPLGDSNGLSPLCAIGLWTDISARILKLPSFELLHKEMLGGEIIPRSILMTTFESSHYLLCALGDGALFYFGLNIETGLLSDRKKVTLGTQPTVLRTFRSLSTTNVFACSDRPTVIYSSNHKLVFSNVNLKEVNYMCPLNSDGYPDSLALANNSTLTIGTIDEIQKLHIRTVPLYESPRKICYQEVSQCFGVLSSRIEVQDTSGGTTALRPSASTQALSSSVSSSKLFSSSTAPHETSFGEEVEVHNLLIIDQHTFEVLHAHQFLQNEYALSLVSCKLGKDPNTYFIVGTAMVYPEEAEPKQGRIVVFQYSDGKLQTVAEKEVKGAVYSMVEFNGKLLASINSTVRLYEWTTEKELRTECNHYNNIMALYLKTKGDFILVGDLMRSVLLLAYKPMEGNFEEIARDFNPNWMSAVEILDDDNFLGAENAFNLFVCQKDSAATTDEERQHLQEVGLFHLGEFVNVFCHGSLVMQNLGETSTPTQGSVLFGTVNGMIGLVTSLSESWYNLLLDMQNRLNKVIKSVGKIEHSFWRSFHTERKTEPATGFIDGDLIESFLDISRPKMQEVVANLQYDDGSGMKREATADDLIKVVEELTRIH
resultType: DC50 (nM)

Worked cases, answers included:
input: So what does the record say about DC50 for C[C@@H]1CN(Cc2ccc3nc([C@@H]4CCOC(C)(C)C4)ccc3c2)C[C@H]1Oc1ccc2c(c1)CN(C1CCC(=O)NC1=O)C2=O (stereo partly shown) ?
output: 4.25

input: So what does the record say about DC50 for `O=C1CC[C@H](N2Cc3cc(O[C@H]4CCN(Cc5ccc6nc(N7CCOCC7)ncc6c5Cl)C4)ccc3C2=O)C(=O)N1` ?
output: 3.58

P. COc1cnc2ccc(CN3CC[C@H](Oc4ccc5c(c4)CN(C4CCC(=O)NC4=O)C5=O)C3)cc2c1 (stereo partly shown)
Q. CC1(C)C[C@H](c2ncc3cc(CN4CC[C@H](Oc5ccc6c(c5)CN([C@H]5CCC(=O)NC5=O)C6=O)C4)ccc3n2)CCO1
input: Endpoint returns the identifier whose DC50 is numerically larger, either P or Q . // respond with label for picked entry
output: Q
(Q: 32.3 nM, P: 3.25 nM)
